The reported measurements were obtained from ChEMBL document CHEMBL1135108.

system: 5-hydroxytryptamine receptor 1B (Homo sapiens)
Sequence (P28222 whole entry): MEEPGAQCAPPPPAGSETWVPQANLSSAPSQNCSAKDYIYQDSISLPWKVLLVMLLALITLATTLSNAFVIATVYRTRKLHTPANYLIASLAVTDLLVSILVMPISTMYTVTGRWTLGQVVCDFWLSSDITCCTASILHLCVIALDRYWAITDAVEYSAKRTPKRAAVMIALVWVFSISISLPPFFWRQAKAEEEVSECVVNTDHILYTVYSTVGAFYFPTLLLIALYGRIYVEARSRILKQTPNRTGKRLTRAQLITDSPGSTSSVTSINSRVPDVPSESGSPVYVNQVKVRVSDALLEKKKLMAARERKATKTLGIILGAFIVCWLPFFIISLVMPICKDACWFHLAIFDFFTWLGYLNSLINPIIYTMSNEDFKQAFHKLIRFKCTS
method: The compound was tested for the binding affinity towards human cloned 5-hydroxytryptamine 1B receptor in CHO cells, using [3H]5-HT as radioligand
Each entry below carries its recorded pKi.
Value format note: pKi is -log10 of concentration (mol/L); just state the number.

[
  {
    "molecule": "COc1ccc(NS(=O)(=O)c2sc3ccc(Cl)cc3c2C)cc1N1CCN2CCCCC2C1 (stereo not drawn)",
    "system": "5-hydroxytryptamine receptor 1B (Homo sapiens)",
    "numeric_result": 5.40
  }
]

Write down pKi measured for item COc1ccc(NS(=O)(=O)c2sc3ccc(Cl)cc3c2C)cc1N1CCN2CCC[C@H]2C1
6.20

Look up and report measured pKi for this entry: COc1ccc(NS(=O)(=O)c2sc3ccc(Cl)cc3c2C)cc1N1CCN2CCC[C@@H]2C1
6.20

----------
system: 5-hydroxytryptamine receptor 6 (Homo sapiens)
Sequence (P50406 whole entry): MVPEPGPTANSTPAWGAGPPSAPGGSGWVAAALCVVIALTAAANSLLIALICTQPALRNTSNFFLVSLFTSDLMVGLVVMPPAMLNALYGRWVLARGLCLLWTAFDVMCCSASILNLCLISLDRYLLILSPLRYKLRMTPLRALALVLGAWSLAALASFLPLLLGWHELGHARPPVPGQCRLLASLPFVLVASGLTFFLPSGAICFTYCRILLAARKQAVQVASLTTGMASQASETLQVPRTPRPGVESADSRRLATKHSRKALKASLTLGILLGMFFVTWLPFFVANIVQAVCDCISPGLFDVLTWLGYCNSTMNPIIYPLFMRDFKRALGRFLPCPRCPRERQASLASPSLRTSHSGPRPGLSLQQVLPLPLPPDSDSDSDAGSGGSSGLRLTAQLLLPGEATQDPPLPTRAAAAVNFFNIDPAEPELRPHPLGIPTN
method: The compound was tested for the binding affinity towards human cloned 5-hydroxytryptamine 6 receptor in HeLa cells, using […] as radioligand; n=9
Type: cell-based
test_readout: Ki (nM)
The reply should contain only the number, in nM.

Kindly indicate its recorded Ki. Item: COc1ccc(NS(=O)(=O)c2sc3ccc(Cl)cc3c2C)cc1N1CCN2CCC[C@H]2C1
0.794

----------
system: D(3) dopamine receptor (Homo sapiens, UniProt P35462)
Sequence (P35462 whole entry): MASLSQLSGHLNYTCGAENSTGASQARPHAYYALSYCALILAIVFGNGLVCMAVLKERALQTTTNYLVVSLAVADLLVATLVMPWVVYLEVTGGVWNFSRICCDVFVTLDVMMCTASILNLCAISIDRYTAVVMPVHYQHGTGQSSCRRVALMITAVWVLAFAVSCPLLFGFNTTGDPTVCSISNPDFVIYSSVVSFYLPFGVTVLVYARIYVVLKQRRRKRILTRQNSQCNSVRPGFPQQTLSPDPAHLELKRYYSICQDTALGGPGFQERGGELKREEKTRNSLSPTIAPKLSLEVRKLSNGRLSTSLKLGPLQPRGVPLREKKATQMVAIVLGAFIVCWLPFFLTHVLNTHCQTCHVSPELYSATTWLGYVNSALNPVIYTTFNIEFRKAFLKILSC
method: The compound was tested for the binding affinity towards human cloned Dopamine receptor D3 in CHO cells, using [125I]iodosulpride as radioligand
The following compounds are listed with their measured pKi values.
Keep it numeric: pKi is minus log10 of the concentration in mol/L.

Known results for compounds:
[
  {
    "compound": "COc1ccc(NS(=O)(=O)c2sc3ccc(Cl)cc3c2C)cc1N1CCN2CCCCC2C1 (stereo not drawn)",
    "test_readout": "pKi",
    "numeric_result": 6.00
  },
  {
    "compound": "COc1ccc(NS(=O)(=O)c2sc3ccc(Cl)cc3c2C)cc1N1CCN2CCC[C@@H]2C1",
    "test_readout": "pKi",
    "numeric_result": 6.20
  }
]

Give me measured pKi, please, for this compound: COc1ccc(NS(=O)(=O)c2sc3ccc(Cl)cc3c2C)cc1N1CCN2CCC[C@H]2C1
6.50

----------
system: 5-hydroxytryptamine receptor 4 (Homo sapiens)
Sequence (Q13639 whole entry): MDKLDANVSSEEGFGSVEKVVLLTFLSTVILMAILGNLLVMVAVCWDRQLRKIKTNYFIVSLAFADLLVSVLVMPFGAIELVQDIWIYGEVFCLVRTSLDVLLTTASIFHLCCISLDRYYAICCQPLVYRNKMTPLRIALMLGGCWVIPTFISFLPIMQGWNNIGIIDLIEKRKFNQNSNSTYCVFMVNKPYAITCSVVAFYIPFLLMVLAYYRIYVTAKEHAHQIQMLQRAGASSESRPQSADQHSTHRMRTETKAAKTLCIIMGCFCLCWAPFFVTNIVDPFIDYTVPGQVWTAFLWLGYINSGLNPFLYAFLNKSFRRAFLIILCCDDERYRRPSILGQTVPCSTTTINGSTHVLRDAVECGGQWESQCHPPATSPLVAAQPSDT
method: The compound was tested for the binding affinity towards human cloned 5-hydroxytryptamine 4 receptor in HeLa cells, using [3H]LSD as radioligand
The reader will find reported pKi values listed item by item below.
# pKi = -log10(concentration in molar units)

[
  {
    "structure_smiles": "COc1ccc(NS(=O)(=O)c2sc3ccc(Cl)cc3c2C)cc1N1CCN2CCC[C@H]2C1",
    "system": "5-hydroxytryptamine receptor 4 (Homo sapiens)",
    "pKi": 5.30
  }
]

Let us move to another entry and its pKi.
Input COc1ccc(NS(=O)(=O)c2sc3ccc(Cl)cc3c2C)cc1N1CCN2CCC[C@@H]2C1 , output reported pKi.
5.80

----------
# key: entry, value: Ki
system: 5-hydroxytryptamine receptor 1A (Homo sapiens, UniProt P08908)
Sequence (P08908 whole entry): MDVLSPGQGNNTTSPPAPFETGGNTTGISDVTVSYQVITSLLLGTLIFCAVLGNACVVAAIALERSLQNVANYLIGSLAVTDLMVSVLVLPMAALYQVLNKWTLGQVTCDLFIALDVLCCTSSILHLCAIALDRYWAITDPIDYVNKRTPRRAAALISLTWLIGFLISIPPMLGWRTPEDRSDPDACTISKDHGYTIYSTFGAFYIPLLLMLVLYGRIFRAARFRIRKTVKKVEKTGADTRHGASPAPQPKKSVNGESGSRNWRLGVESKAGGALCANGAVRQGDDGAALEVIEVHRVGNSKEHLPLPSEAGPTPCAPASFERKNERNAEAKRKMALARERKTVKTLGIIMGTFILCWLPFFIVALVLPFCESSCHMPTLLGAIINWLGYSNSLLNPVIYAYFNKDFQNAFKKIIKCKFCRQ
method: The compound was tested for the binding affinity towards human cloned 5-hydroxytryptamine 1A receptor in HEK293 cells, using [3H]8-OH-DPAT as radioligand
Write it as a number; the unit nM goes unstated.

[
  {
    "compound": "COc1ccc(NS(=O)(=O)c2sc3ccc(Cl)cc3c2C)cc1N1CCN2CCCCC2C1 (stereo not drawn)",
    "numeric_result": 631
  },
  {
    "compound": "COc1ccc(NS(=O)(=O)c2sc3ccc(Cl)cc3c2C)cc1N1CCN2CCC[C@@H]2C1",
    "numeric_result": 200
  }
]

Kindly review the next compound as well.
For COc1ccc(NS(=O)(=O)c2sc3ccc(Cl)cc3c2C)cc1N1CCN2CCC[C@H]2C1 , write its Ki.
126

----------
system: 5-hydroxytryptamine receptor 1E (Homo sapiens)
Sequence (P28566 whole entry): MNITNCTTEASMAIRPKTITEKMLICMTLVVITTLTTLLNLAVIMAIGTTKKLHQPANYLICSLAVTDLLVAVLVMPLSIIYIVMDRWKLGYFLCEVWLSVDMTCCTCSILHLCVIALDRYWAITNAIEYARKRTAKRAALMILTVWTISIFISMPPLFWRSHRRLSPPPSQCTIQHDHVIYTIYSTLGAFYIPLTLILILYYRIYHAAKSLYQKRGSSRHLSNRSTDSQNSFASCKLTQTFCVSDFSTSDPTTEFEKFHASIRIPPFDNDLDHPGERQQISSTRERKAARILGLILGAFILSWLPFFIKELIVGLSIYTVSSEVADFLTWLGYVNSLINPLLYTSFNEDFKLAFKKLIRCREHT
method: The compound was tested for the binding affinity towards human cloned 5-hydroxytryptamine 1E receptor in CHO cells, using [3H]5-HT as radioligand
Reported pKi values are given for each entry in this list.
Value format note: pKi is -log10 of concentration (mol/L); just state the number.

[
  {
    "structure_smiles": "COc1ccc(NS(=O)(=O)c2sc3ccc(Cl)cc3c2C)cc1N1CCN2CCC[C@@H]2C1",
    "system": "5-hydroxytryptamine receptor 1E (Homo sapiens)",
    "pKi": 6.00
  }
]

Shift focus to the following entry.
# return recorded pKi for entry COc1ccc(NS(=O)(=O)c2sc3ccc(Cl)cc3c2C)cc1N1CCN2CCC[C@H]2C1
5.80

----------
system: UniProtKB P28335
Sequence (P28335 whole entry): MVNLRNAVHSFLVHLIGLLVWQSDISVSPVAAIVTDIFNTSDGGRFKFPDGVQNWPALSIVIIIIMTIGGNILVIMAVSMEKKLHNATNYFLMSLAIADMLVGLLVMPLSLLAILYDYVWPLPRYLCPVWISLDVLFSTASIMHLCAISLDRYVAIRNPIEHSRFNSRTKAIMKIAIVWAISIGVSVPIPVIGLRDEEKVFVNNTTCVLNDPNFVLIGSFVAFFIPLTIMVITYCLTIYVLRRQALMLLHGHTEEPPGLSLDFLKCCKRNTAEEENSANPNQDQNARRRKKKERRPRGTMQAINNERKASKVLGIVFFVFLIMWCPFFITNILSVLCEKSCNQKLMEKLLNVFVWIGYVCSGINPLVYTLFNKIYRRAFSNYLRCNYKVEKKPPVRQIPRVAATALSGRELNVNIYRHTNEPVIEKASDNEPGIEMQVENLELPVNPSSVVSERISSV
method: The compound was tested for the binding affinity towards human cloned 5-hydroxytryptamine 2C receptor in HEK293 cells, using […] as radioligand
test_readout: Ki (nM)
Hi! Could you send only the number? It should be in nM, unit omitted.

Report measured Ki on UniProtKB P28335; entry: COc1ccc(NS(=O)(=O)c2sc3ccc(Cl)cc3c2C)cc1N1CCN2CCC[C@@H]2C1
631

// fetch Ki for COc1ccc(NS(=O)(=O)c2sc3ccc(Cl)cc3c2C)cc1N1CCN2CCC[C@H]2C1 ; system: UniProtKB P28335
398

----------
pKi values for the compounds below.
system: 5-hydroxytryptamine receptor 1F (Homo sapiens)
Sequence (P30939 whole entry): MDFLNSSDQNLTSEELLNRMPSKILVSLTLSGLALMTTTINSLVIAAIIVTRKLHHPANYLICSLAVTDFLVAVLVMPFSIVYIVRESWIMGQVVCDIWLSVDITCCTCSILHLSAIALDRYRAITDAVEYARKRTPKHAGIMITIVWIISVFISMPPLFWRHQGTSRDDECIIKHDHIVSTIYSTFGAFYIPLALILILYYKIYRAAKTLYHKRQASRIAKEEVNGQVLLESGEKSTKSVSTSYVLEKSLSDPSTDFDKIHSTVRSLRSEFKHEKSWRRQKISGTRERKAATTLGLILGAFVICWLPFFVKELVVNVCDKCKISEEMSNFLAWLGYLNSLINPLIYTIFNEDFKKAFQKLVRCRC
method: The compound was tested for the binding affinity towards human cloned 5-hydroxytryptamine 1F receptor in CHO cells, using [3H]5-HT as radioligand
Lab note: report pKi as minus log10 of the concentration in molar units, number only.

[
  {
    "structure_smiles": "COc1ccc(NS(=O)(=O)c2sc3ccc(Cl)cc3c2C)cc1N1CCN2CCC[C@H]2C1",
    "numeric_result": 6.50
  }
]

Please examine the following record next.
Please look at this compound and report its pKi: COc1ccc(NS(=O)(=O)c2sc3ccc(Cl)cc3c2C)cc1N1CCN2CCC[C@@H]2C1
6.70

----------
Listing of recorded Ki by entry.
system: 5-hydroxytryptamine receptor 6 (Homo sapiens)
method: The compound was tested for the binding affinity towards human cloned 5-hydroxytryptamine 6 receptor in HeLa cells, using […] as radioligand; n=3
Type: cell-based
Only the number, expressed in nM, is required.

[
  {
    "compound": "COc1ccc(NS(=O)(=O)c2sc3ccc(Cl)cc3c2C)cc1N1CCN2CCCCC2C1 (configuration not stated)",
    "Ki, nM": 5.01
  }
]

Switching to the query record.
Please look at this compound and report its Ki: COc1ccc(NS(=O)(=O)c2sc3ccc(Cl)cc3c2C)cc1N1CCN2CCC[C@@H]2C1
0.794

----------
system: 5-hydroxytryptamine receptor 2A (Homo sapiens)
Sequence (P28223 whole entry): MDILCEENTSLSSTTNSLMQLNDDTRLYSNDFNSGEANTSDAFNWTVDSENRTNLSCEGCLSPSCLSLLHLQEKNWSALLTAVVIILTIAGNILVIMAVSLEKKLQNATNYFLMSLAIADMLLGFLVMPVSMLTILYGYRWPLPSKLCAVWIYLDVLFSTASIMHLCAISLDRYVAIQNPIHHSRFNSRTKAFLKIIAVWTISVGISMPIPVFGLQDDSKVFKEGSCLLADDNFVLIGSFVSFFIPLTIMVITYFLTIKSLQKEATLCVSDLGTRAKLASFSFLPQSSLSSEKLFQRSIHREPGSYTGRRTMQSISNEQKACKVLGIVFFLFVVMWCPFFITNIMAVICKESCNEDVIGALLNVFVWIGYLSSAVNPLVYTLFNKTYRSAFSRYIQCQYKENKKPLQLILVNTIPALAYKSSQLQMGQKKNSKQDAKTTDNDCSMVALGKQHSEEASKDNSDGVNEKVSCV
method: The compound was tested for the binding affinity towards human cloned 5-hydroxytryptamine 2A receptor in HEK293 cells, using [3H]ketanserin as radioligand
test_readout: pKi
Lab note — pKi values are minus log10 of concentrations in M.

As a guide, the following entries are already answered.
[
  {
    "compound": "COc1ccc(NS(=O)(=O)c2sc3ccc(Cl)cc3c2C)cc1N1CCN2CCC[C@H]2C1",
    "numeric_result": 6.60
  },
  {
    "compound": "COc1ccc(NS(=O)(=O)c2sc3ccc(Cl)cc3c2C)cc1N1CCN2CCC[C@@H]2C1",
    "numeric_result": 5.90
  }
]

Turning to the following compound.
Name the recorded pKi of the item COc1ccc(NS(=O)(=O)c2sc3ccc(Cl)cc3c2C)cc1N1CCN2CCCCC2C1 (stereo not drawn) in your answer.
6.20
